Form field: viability, T/C (one value per entry).
# System: KRAS PDC multicell spheroid viability
# ASSAY_NAME: Anticancer human tumor 521955-158-R6-J3-PDC patient-derived pancreatic carcinoma cell line growth inhibition [KRAS2]
# CONDITION_LABEL: compound 1 µM; stronger effect = lower value

# value of viability, T/C, KRAS PDC multicell spheroid viability, item COc1cc(Nc2ncc3c(n2)-c2ccc(Cl)cc2C(c2c(F)cccc2OC)=NC3)ccc1C(=O)O = 90.7% [middle of 5 runs]

# value of viability, T/C, KRAS PDC multicell spheroid viability, item CC(=O)OC12COC1CC(O)C1(C)C(=O)C(O)C3=C(C)C(OC(=O)C(O)C(NC(=O)OC(C)(C)C)c4ccccc4)CC(O)(C(OC(=O)c4ccccc4)C21)C3(C)C (stereo not drawn) = 101% [middle of 5 runs]

# value of viability, T/C, KRAS PDC multicell spheroid viability, item CC1COCCN1c1cc(-c2ccnn2C)c2ccnc(-c3ccn[nH]3)c2n1 (stereo not drawn) = 84.7% [middle of 5 runs]

====

# Tested on: KRAS PDC multicell spheroid viability
# ASSAY_NAME: Anticancer human tumor 521955-158-R6-J3-PDC cell line growth inhibition [KRAS2];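 note: drug exposure lasted seven days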
# CONDITION_LABEL: curve of first compound; second compound 0.1 µM
EXPERIMENTAL_ENDPOINT: IC50

- MOLECULE: "CN(C)C/C=C/C(=O)Nc1cc2c(Nc3ccc(F)c(Cl)c3)ncnc2cc1O[C@H]1CCOC1 + C=CC(=O)N1CCN(c2nc(OCC3CCCN3C)nc3c2CCN(c2cccc4cccc(C)c24)C3)CC1CC#N"
  TARGET_DESC: "KRAS PDC multicell spheroid viability"
  IC50: "> 0.1 µM"
- MOLECULE: "CC1OCC2(CCN(c3cnc(Sc4ccnc(N)c4Cl)c(N)n3)CC2)C1N (stereo not given) + C=CC(=O)N1CCN(c2nc(OCC3CCCN3C)nc3c2CCN(c2cccc4cccc(C)c24)C3)CC1CC#N"
  TARGET_DESC: "KRAS PDC multicell spheroid viability"
  IC50: "> 10 µM"
- MOLECULE: "Cn1ncnc1[C@H]1c2n[nH]c(=O)c3cc(F)cc(c23)N[C@@H]1c1ccc(F)cc1 + CC1OCC2(CCN(c3cnc(Sc4ccnc(N)c4Cl)c(N)n3)CC2)C1N"
  TARGET_DESC: "KRAS PDC multicell spheroid viability"
  IC50: "> 0.1 µM"
- MOLECULE: "COc1cc2nccc(Oc3ccc(NC(=O)C4(C(=O)Nc5ccc(F)cc5)CC4)cc3)c2cc1OC + CNCc1ccccc1-c1csc(C(C)Nc2nc(C)nc3cc(OC)c(OC)cc23)c1"
  TARGET_DESC: "KRAS PDC multicell spheroid viability"
  IC50: "> 10 µM"
- MOLECULE: "COc1cc(Nc2ncc3c(n2)-c2ccc(Cl)cc2C(c2c(F)cccc2OC)=NC3)ccc1C(=O)O + CC1OCC2(CCN(c3cnc(Sc4ccnc(N)c4Cl)c(N)n3)CC2)C1N"
  TARGET_DESC: "KRAS PDC multicell spheroid viability"
  IC50: "> 10 µM"

Consider the additional molecule presented here.
Entry under test: CC(=O)OC12COC1CC(O)C1(C)C(=O)C(O)C3=C(C)C(OC(=O)C(O)C(NC(=O)OC(C)(C)C)c4ccccc4)CC(O)(C(OC(=O)c4ccccc4)C21)C3(C)C (stereo not given) + CNCc1ccccc1-c1csc(C(C)Nc2nc(C)nc3cc(OC)c(OC)cc23)c1 . Its IC50 was > 3.16 µM
